test: Equilibrium solubility of TAC in modified simulated lung fluid with 0.02% DPPC; assay type: physicochemical; settings: modified simulated lung fluid (SLF) with 0.02% DPPC, 37 °C, fassgf or other biorelevant, thermodynamic from solid, modified simulated lung fluid 0.02% DPPC
property-measured: solubility thermodynamic

smiles-representation	reported-result
C=CC[C@@H]1/C=C(\C)C[C@H](C)C[C@H](OC)[C@H]2O[C@@](O)(C(=O)C(=O)N3CCCC[C@H]3C(=O)O[C@H](/C(C)=C/[C@@H]3CC[C@@H](O)[C@H](OC)C3)[C@H](C)[C@@H](O)CC1=O)[C@H](C)C[C@@H]2OC	~6.8 µg/mL
